Documented hERG current change (%, negative = inhibition) at 10uM across a set of compounds
subject-of-test: human ether-à-go-go-related gene (hERG) potassium channel (human, UniProt Q12809)
Sequence (Q12809 whole entry, looked up): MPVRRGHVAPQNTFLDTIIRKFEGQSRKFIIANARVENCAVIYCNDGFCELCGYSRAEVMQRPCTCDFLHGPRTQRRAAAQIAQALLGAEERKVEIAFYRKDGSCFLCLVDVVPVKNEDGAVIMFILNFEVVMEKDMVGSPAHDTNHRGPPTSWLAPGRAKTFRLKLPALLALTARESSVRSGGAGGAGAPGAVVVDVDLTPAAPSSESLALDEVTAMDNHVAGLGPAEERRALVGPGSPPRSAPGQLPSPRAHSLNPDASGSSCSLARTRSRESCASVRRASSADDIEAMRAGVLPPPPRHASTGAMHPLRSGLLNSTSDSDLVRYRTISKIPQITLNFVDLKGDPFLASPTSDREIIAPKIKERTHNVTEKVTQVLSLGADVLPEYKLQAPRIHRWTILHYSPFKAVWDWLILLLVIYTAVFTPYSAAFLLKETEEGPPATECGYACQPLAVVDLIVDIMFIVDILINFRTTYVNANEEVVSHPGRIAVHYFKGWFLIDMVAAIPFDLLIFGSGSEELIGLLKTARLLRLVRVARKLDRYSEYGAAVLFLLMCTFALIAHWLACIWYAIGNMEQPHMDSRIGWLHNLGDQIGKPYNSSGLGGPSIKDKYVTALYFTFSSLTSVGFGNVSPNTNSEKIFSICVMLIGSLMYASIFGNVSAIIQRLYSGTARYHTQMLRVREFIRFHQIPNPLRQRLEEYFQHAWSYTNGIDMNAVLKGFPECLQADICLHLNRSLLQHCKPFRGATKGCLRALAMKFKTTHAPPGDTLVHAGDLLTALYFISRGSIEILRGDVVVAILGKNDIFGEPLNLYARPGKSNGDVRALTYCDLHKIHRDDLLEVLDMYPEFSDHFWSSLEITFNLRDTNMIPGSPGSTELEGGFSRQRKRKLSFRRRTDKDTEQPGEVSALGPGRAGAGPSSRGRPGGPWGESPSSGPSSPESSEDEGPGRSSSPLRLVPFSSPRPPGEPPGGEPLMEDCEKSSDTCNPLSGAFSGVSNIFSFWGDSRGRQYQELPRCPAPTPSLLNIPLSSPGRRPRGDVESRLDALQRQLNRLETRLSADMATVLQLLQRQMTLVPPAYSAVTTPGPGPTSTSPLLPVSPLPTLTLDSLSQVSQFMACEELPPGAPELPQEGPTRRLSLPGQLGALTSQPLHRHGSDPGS
assay-comment: primary screen, population patch clamp on CHO cells stably expressing hERG; higher = less effect of the substance;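 also: peak tail current of the secondary pulse compared with the same well before compound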
The campaign covered roughly 310,000 compounds. About 14,000 (4.5%) showed an effect of 50% or more. The effect is printed as a negative number. This is one part of a sample in which strong results are shown more often than they occur.
Field format: number, assumed %, no unit text.

Take a look at these entries with their results.
compound	subject-of-test	quantity-unit	experimental-value
Cc1ccc(-n2c(C)c(C)c3c(NCCN(C)C)ncnc32)cc1	human ether-à-go-go-related gene (hERG) potassium channel (human, UniProt Q12809)	%	-36.3
COc1cccc(CNCCc2c[nH]c3ccccc23)c1OCc1ccccc1F.Cl	human ether-à-go-go-related gene (hERG) potassium channel (human, UniProt Q12809)	%	-55.8
COc1ccc(C(=O)NC(Cc2c[nH]c3ccccc23)C(=O)O)cc1 (centres unmarked)	human ether-à-go-go-related gene (hERG) potassium channel (human, UniProt Q12809)	%	12.4
O=C(COc1ccccc1)NCC(=O)N/N=C/c1ccc(Br)cc1	human ether-à-go-go-related gene (hERG) potassium channel (human, UniProt Q12809)	%	-14.6
COc1ccc(CNCCc2c[nH]c3ccccc23)c(OC)c1C.O=C(O)C(=O)O	human ether-à-go-go-related gene (hERG) potassium channel (human, UniProt Q12809)	%	-60.3

Form field hERG current change (%, negative = inhibition) at 10uM for item COc1cc(C)c(CNCCc2c[nH]c3ccccc23)cc1C.O=C(O)C(=O)O on human ether-à-go-go-related gene (hERG) potassium channel (human, UniProt Q12809): -36.9

Measured hERG current change (%, negative = inhibition) at 10uM (human ether-à-go-go-related gene (hERG) potassium channel (human, UniProt Q12809)), entry CC(C)(C)C1CCC(OC(=O)C[N+]2(C)CCCCC2)CC1.[I-] (centres unmarked) : 23.1

---

subject-of-test: human ether-à-go-go-related gene (hERG) potassium channel (human)
assay-comment: primary screen, population patch clamp on CHO cells stably expressing hERG; higher = less effect of the substance
About 14,000 (4.5%) of roughly 310,000 compounds showed an effect of 50% or more. The effect is printed as a negative number. The list comes from a sample in which strong results are over-represented; it also holds close analogues and randomly drawn compounds.
// hERG current change (%, negative = inhibition) at 10uM lookup, one value per entry
Field format: number, assumed %, no unit text.

compound	quantity-unit	experimental-value
O=c1c2ccccc2nc2n1C(CSc1ccccc1)CS2 (stereo not shown)	%	-19.6
COc1cc(S(=O)(=O)N2CCN(C)CC2)c(OC)cc1Cl	%	13.2
Cc1nc2ccccc2c(=O)n1NC(=O)c1cccc(Cl)c1	%	13
O=C(Nc1ccccc1SCC1CSc2nc3ccccc3c(=O)n21)c1ccccc1 (stereo not shown)	%	-67.7
COc1ccc(CCNC(=S)Nc2ccc(S(=O)(=O)Nc3ncccn3)cc2)cc1OC	%	21.2
Cn1c(CN2CCCCC2)nc2cc(NC(=O)c3cccc(Br)c3)ccc21	%	-63.3
Cc1ccc(C(NC(=O)N2CCCC2)C(Cl)(Cl)Cl)cc1F (stereo not shown)	%	19.1
CC1CCN(CCC(=O)Nc2ccccc2)CC1	%	-10.1
CCn1c(=O)c([N+](=O)[O-])c(NC2CCS(=O)(=O)C2)c2ccccc21 (stereo not shown)	%	5.85
Clc1ccc(-c2nnc(SCc3cn4ccsc4n3)n2CC2CCCO2)cc1 (stereo not shown)	%	-29.2

Measured hERG current change (%, negative = inhibition) at 10uM of CCC(=O)Nc1ccc2c(c1)nc(CN1CCCCC1)n2C : 15

The recorded hERG current change (%, negative = inhibition) at 10uM for entry Cc1ccc(C(=O)Nc2ccccc2SCC2CSc3nc4ccccc4c(=O)n32)cc1 (stereo not shown) equals -68.4

---

Reported hERG current change (%, negative = inhibition) at 10uM values for a set of compounds
subject-of-test: human ether-à-go-go-related gene (hERG) potassium channel (human)
assay-comment: primary screen, population patch clamp on CHO cells stably expressing hERG; higher = less effect of the substance
Experimental: Briefly, Chinese hamster ovary (CHO) cells stably expressing the hERG channel were dislodged from tissue culture flasks and dispensed into PPC plates. […] During the recording, background leak currents were estimated by a 100 ms step to -80 mV from an initial holding potential of -70 mV and subtracted from the subsequent current measurement. The campaign was conducted in two phases using slight differences in recording protocol. […]
The whole screen tested about 310,000 compounds, of which about 14,000 (4.5%) showed an effect of 50% or more. The effect is printed as a negative number. The full list was thinned out, with strong results kept by preference.
The reply should contain only the number, in %.

Example compounds with recorded hERG current change (%, negative = inhibition) at 10uM:
compound	experimental-value
CCN(CCCNC(=O)CC1Oc2ccc(C)cc2NC1=O)Cc1ccccc1 (stereo not drawn)	-61.5
CCCCOC(=O)c1nc(Cl)c(Cl)c(N)c1Cl	-0.0656
COc1ccc(NC(=O)CC2Oc3ccc(C)cc3NC2=O)cc1 (stereo not drawn)	11.3
Cc1ccc2c(c1)NC(=O)C(CC(=O)NCCCN1CCc3ccccc3C1)O2 (stereo not drawn)	-65.7
OCCC1CN(Cc2ccc3nsnc3c2)CCN1CCc1ccccc1 (stereo not drawn)	-82.2

Query CN(C)c1ccc(C2C3C(=O)N(c4ccc(C(=O)O)cc4)C(=O)C3ON2c2ccccc2)cc1 (stereo not drawn) on human ether-à-go-go-related gene (hERG) potassium channel (human); hERG current change (%, negative = inhibition) at 10uM returned: 7.23

The recorded hERG current change (%, negative = inhibition) at 10uM with human ether-à-go-go-related gene (hERG) potassium channel (human) for Cc1ccc2c(c1)NC(=O)C(CC(=O)NCCCN1CCCC1=O)O2 (stereo not drawn) was 16.5

---

subject-of-test: human ether-à-go-go-related gene (hERG) potassium channel (human)
assay-comment: primary screen, population patch clamp on CHO cells stably expressing hERG; higher = less effect of the substance
Hit rate of the full screen: of about 310,000 compounds, about 14,000 (4.5%) showed an effect of 50% or more. Effects have a minus sign here. The sample holds strong results, similar compounds and a random draw of the others, so the mix is not that of the screen.
measured-property: hERG current change (%, negative = inhibition) at 10uM
Hi, when you answer, please include the unit after the number. Thanks!

Some entries whose results are on file:
molecule	experimental-value
COc1cc(/C=C/C(=O)OCC(=O)NCC(=O)Nc2cccc(C)c2C)ccc1OC(F)F	-25.7%
Cc1nonc1OCCCNc1ccc([N+](=O)[O-])cc1Cl	9.59%
O=[N+]([O-])c1ccc(CNc2cccc(F)c2)s1	-32.3%

Query COc1ccc(CN2CCC(CO)(CCOc3ccccc3)CC2)cc1C yields hERG current change (%, negative = inhibition) at 10uM of -81.8%

Input O=C1C=C(c2ccc(-c3ccccc3)cc2)C[C@@H](c2ccc(F)cc2)C1 . Output hERG current change (%, negative = inhibition) at 10uM: 6.67%

hERG current change (%, negative = inhibition) at 10uM reported for this molecule O=[N+]([O-])c1cc(C(F)(F)F)ccc1NCCOc1ccccc1 : -3.64%

The recorded hERG current change (%, negative = inhibition) at 10uM for CN(C(=O)c1ccc(OC2CCN(Cc3ccccn3)CC2)cc1)C1CCCCC1 is -9.82%

---

subject-of-test: human ether-à-go-go-related gene (hERG) potassium channel (human, UniProt Q12809)
assay-comment: primary screen, population patch clamp on CHO cells stably expressing hERG; higher = less effect of the substance
The campaign covered roughly 310,000 compounds. About 14,000 (4.5%) showed an effect of 50% or more. The effect is printed as a negative number. The entries come from a sample that favours strong results as a whole.
hERG current change (%, negative = inhibition) at 10uM values, listed per item
Enter your answer as a number in %; do not include the unit.

Guide cases for hERG current change (%, negative = inhibition) at 10uM, answers given:
compound	quantity-unit	experimental-value
CC(=O)Nc1nc(C)c(Cc2ccccc2)c(=O)[nH]1	%	-1.04
N#Cc1ccc(C23CC4(C2)[C@H](CN(Cc2ccc(C(F)(F)F)cc2)[C@@H]4c2ccccc2)C3c2ccccc2)cc1 (some centres unmarked)	%	13.5
Cc1ccn2c(C(=O)CSc3ccc(Cl)cc3)c(C)nc2c1	%	7.28
COc1cc2cccc(OC)c(=O)c2c(O)c1OC	%	-1.84
Cc1cc(-c2ccc(C)c(S(=O)(=O)NCc3ccc(Br)cc3)c2)on1	%	-31

For record Cc1ccc(-c2ccc(=O)n(Cc3c(F)cccc3Cl)n2)cc1 the listed hERG current change (%, negative = inhibition) at 10uM is 9.18

The reported value for CCN(CC)CCNC(=O)CCc1c(C)nc2c(c(C)nn2-c2ccc(C)c(C)c2)c1C in terms of hERG current change (%, negative = inhibition) at 10uM is -62.3

Memo: CCOCCN1CCN(c2c(C)c(C)nc3cc(-c4cc(OC)cc(OC)c4)nn23)CC1 , reported hERG current change (%, negative = inhibition) at 10uM: -73.3

The reported value for OCCN(CC#CC(O)(c1ccccc1)c1ccccc1)CCO in terms of hERG current change (%, negative = inhibition) at 10uM is 5.56

// sample CC(C)N(CC#CC(O)(c1ccccc1)c1ccccc1)CCO , its hERG current change (%, negative = inhibition) at 10uM was -28.1

Just so you know, measured hERG current change (%, negative = inhibition) at 10uM for CCN(CC)CC#CC(O)(c1ccccc1)c1ccccc1 came out at -42.5

Value of hERG current change (%, negative = inhibition) at 10uM reported for the compound COc1cc(C(=O)N2CCN(C(=O)c3cc(-c4ccc(Br)cc4)n[nH]3)CC2)cc(OC)c1OC is -73.3

In plain terms, COCc1c(C#N)c(NCCc2ccc(F)cc2)nc(C)c1[N+](=O)[O-] has a documented hERG current change (%, negative = inhibition) at 10uM of 1.39

Noted for Cc1ccc(-n2nc(C)c3c(C)c(CCC(=O)O)c(C)nc32)cc1C : its hERG current change (%, negative = inhibition) at 10uM reads 30.7
